These measurements were taken from patent US8394971B2.

Target: androgen receptor (adenovirus AdEasy+rAR in L929 cells) (Rattus norvegicus, UniProt P15207)
Construct: expressed in transfected cells
Sequence (P15207 whole entry S389L): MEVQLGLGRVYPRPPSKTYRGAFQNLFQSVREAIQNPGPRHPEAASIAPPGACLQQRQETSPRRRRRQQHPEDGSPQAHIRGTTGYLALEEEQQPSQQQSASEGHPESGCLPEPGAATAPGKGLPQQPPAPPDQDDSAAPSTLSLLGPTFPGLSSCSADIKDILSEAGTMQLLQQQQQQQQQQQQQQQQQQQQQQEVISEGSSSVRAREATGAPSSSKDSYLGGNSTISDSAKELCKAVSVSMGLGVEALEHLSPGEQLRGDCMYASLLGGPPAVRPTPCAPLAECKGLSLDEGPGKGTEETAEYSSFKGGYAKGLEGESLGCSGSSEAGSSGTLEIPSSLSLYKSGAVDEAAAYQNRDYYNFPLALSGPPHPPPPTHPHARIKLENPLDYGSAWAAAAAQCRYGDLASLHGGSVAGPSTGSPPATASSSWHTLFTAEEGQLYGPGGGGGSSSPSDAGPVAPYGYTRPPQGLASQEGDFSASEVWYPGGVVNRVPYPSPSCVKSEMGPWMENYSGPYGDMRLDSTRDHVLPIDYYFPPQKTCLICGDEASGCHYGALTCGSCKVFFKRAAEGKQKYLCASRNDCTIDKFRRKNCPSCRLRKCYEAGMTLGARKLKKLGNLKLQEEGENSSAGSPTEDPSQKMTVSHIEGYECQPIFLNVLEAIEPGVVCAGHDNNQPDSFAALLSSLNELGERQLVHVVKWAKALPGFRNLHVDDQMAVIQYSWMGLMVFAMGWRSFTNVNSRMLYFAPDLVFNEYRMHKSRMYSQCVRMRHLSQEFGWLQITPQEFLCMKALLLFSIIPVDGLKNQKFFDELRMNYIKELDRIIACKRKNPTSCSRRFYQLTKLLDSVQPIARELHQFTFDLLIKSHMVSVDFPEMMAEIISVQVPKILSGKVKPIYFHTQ
Test: L929 Androgen Receptor Functional Assay, Adenovirus Transduction
Format: cell-based
Conditions: L929, L929 antagonist testing with R1881; 3000 nM
Experimental Readout: inhibition at 3 µM (%)

Compound	Quantitative Result
CCSCC(C)(O)c1[nH]c2cc(C(F)(F)F)c(Br)cc2c1C (centres unmarked)	103
CCS(=O)(=O)CC(C)(O)c1[nH]c2cc(C(F)(F)F)c(C#N)cc2c1C (single isomer, unassigned)	90
CCSCC(C)(O)c1cc2cc([N+](=O)[O-])c(C(F)(F)F)cc2[nH]1 (racemic)	78
CC[S+]([O-])CC(C)(O)c1[nH]c2cc(C(F)(F)F)c(C#N)cc2c1C (centres unmarked)	65
CCSCC(C)(O)c1cc2cc(C#N)c(C(F)(F)F)cc2[nH]1 (single isomer, unassigned)	87
